System: 876862-298-R-J1-PDC complex spheroids, viability % test/control
Assay: Anticancer human tumor 876862-298-R-J1-PDC patient-derived endometrial carcinoma cell line growth inhibition [CLK]; active means viability on the fitted dose curve at most 10% of control; inactive means the rest
Settings: second compound 1 µM; first compound 0.316 µM
From the text: A high-throughput screen of multi-cell type tumor spheroids was designed to identify active combinations of […] and targeted small molecules. Complex spheroids include a stromal component modeled by human endothelial cells (HUVEC) and fibroblasts modeled by human mesenchymal stem cells (MSCs). […] Compounds. […] If the clinical Cmax for an agent had not been determined, the highest concentration tested was 10 microM. […]
Possible outcomes: active, inactive

compound	assignedCategory
C#Cc1c(F)ccc2cc(O)cc(-c3ncc4c(N5CC6CCC(C5)N6)nc(OCC56CCCN5CC(F)C6)nc4c3F)c12 (stereo unspecified) + CN1CCN(c2cc(C(=O)Nc3cc4cc(-c5cnn(C)c5)ccc4cn3)ccn2)CC1	active
COc1ccc([C@@H](O)c2cc(-c3ncnc4cc(N5CCOCC5)ccc34)c(F)cc2Cl)nn1 + CN1CCN(c2cc(C(=O)Nc3cc4cc(-c5cnn(C)c5)ccc4cn3)ccn2)CC1	active
O=c1[nH]cc(F)c(=O)[nH]1 + CN1CCN(c2cc(C(=O)Nc3cc4cc(-c5cnn(C)c5)ccc4cn3)ccn2)CC1	active
COc1c(OCCCN2CCOCC2)ccc2c3n(c(=NC(=O)c4cnc(N)nc4)nc12)CCN3 + CNC(=O)c1ccc(Nc2nc(OC3CCCC3)c3c(-c4ccc5nc(C)oc5c4)c[nH]c3n2)c(OC)c1	inactive
COc1cccc2c1C(=O)c1c(O)c3c(c(O)c1C2=O)CC(O)(C(=O)CO)CC3OC1CC(N)C(O)C(C)O1 (stereo unspecified) + CN1CCN(c2cc(C(=O)Nc3cc4cc(-c5cnn(C)c5)ccc4cn3)ccn2)CC1	active
CCCS(=O)(=O)Nc1ccc(F)c(C(=O)c2c[nH]c3ncc(-c4ccc(Cl)cc4)cc23)c1F + CNC(=O)c1ccc(Nc2nc(OC3CCCC3)c3c(-c4ccc5nc(C)oc5c4)c[nH]c3n2)c(OC)c1	inactive

---

Tested on: 876862-298-R-J1-PDC complex spheroids, viability % test/control
Assay: Anticancer human tumor 876862-298-R-J1-PDC cell line growth inhibition [CLK]; active means viability on the fitted dose curve at most 10% of control; inactive means the rest;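 further: spheroids exposed to drugs for 7 days before readout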
Conditions: second compound 1 µM; first compound 0.0316 µM
Text: A high-throughput screen of multi-cell type tumor spheroids was designed to identify active combinations of […] and targeted small molecules. Complex spheroids include a stromal component modeled by human endothelial cells (HUVEC) and fibroblasts modeled by human mesenchymal stem cells (MSCs). […] Compounds. […] If the clinical Cmax for an agent had not been determined, the highest concentration tested was 10 microM. […]
Labels: Y = active, N = inactive

compound	assignedCategory
COC1C=CCC(C)C(C)S(=O)(=O)NC(=O)c2ccc3c(c2)N(CC2CCC21)CC1(CCCc2cc(Cl)ccc21)CO3 (stereo not given) + CN1CCN(c2cc(C(=O)Nc3cc4cc(-c5cnn(C)c5)ccc4cn3)ccn2)CC1	Y
Nc1ccccc1NC(=O)c1ccc(CNC(=O)OCc2cccnc2)cc1 + CN1CCN(c2cc(C(=O)Nc3cc4cc(-c5cnn(C)c5)ccc4cn3)ccn2)CC1	Y
CCCS(=O)(=O)Nc1ccc(F)c(C(=O)c2c[nH]c3ncc(-c4ccc(Cl)cc4)cc23)c1F + CN1CCN(c2cc(C(=O)Nc3cc4cc(-c5cnn(C)c5)ccc4cn3)ccn2)CC1	Y
O=c1[nH]cc(F)c(=O)[nH]1 + CNC(=O)c1ccc(Nc2nc(OC3CCCC3)c3c(-c4ccc5nc(C)oc5c4)c[nH]c3n2)c(OC)c1	N
CC1(C)CCC(CN2CCN(c3ccc(C(=O)NS(=O)(=O)c4ccc(NCC5CCOCC5)c([N+](=O)[O-])c4)c(Oc4cnc5[nH]ccc5c4)c3)CC2)=C(c2ccc(Cl)cc2)C1 + CN1CCN(c2cc(C(=O)Nc3cc4cc(-c5cnn(C)c5)ccc4cn3)ccn2)CC1	Y

---

// reported pIC50 per item
test system: 876862-298-R-J1-PDC complex spheroids, viability % test/control; assay: Anticancer human tumor 876862-298-R-J1-PDC cell line growth inhibition [CLK]; conditions: curve of first compound; second compound 10 µM;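 further: spheroids exposed to drugs for 7 days before readout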
pIC50: −log10 of the molar value.

compound	assayTarget	pIC50
C#Cc1c(F)ccc2cc(O)cc(-c3ncc4c(N5CC6CCC(C5)N6)nc(OCC56CCCN5CC(F)C6)nc4c3F)c12 (centres undefined) + CNC(=O)c1ccc(Nc2nc(OC3CCCC3)c3c(-c4ccc5nc(C)oc5c4)c[nH]c3n2)c(OC)c1	876862-298-R-J1-PDC complex spheroids, viability % test/control	> 7.50
COc1c(OCCCN2CCOCC2)ccc2c3n(c(=NC(=O)c4cnc(N)nc4)nc12)CCN3 + CNC(=O)c1ccc(Nc2nc(OC3CCCC3)c3c(-c4ccc5nc(C)oc5c4)c[nH]c3n2)c(OC)c1	876862-298-R-J1-PDC complex spheroids, viability % test/control	> 8.50
C=CC(=O)Nc1cc(Nc2nccc(-c3cn(C)c4ccccc34)n2)c(OC)cc1N(C)CCN(C)C + CN1CCN(c2cc(C(=O)Nc3cc4cc(-c5cnn(C)c5)ccc4cn3)ccn2)CC1	876862-298-R-J1-PDC complex spheroids, viability % test/control	> 9.02
COc1cccc2c1C(=O)c1c(O)c3c(c(O)c1C2=O)CC(O)(C(=O)CO)CC3OC1CC(N)C(O)C(C)O1 (centres undefined) + CNC(=O)c1ccc(Nc2nc(OC3CCCC3)c3c(-c4ccc5nc(C)oc5c4)c[nH]c3n2)c(OC)c1	876862-298-R-J1-PDC complex spheroids, viability % test/control	> 7.50

---

test system: 876862-298-R-J1-PDC complex spheroids, viability % test/control; experiment: Anticancer human tumor 876862-298-R-J1-PDC cell line growth inhibition [CLK]; details: second compound 3.16 µM; first compound 0.0316 µM; active means viability on the fitted dose curve at most 10% of control; inactive means the rest;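 further: spheroids exposed to drugs for 7 days before readout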
Outcomes: True (active), False (inactive)

molecule	assignedCategory
CCc1c2c(nc3ccc(O)cc13)-c1cc3c(c(=O)n1C2)COC(=O)[C@]3(O)CC + CNC(=O)c1ccc(Nc2nc(OC3CCCC3)c3c(-c4ccc5nc(C)oc5c4)c[nH]c3n2)c(OC)c1	True
COc1c(OCCCN2CCOCC2)ccc2c3n(c(=NC(=O)c4cnc(N)nc4)nc12)CCN3 + CN1CCN(c2cc(C(=O)Nc3cc4cc(-c5cnn(C)c5)ccc4cn3)ccn2)CC1	True
COc1ccc([C@@H](O)c2cc(-c3ncnc4cc(N5CCOCC5)ccc34)c(F)cc2Cl)nn1 + CN1CCN(c2cc(C(=O)Nc3cc4cc(-c5cnn(C)c5)ccc4cn3)ccn2)CC1	True
CC(CO)NC(=O)c1cc(-c2ccc(Cl)cc2)nn(-c2cnn(C)c2)c1=O (stereo not given) + CNC(=O)c1ccc(Nc2nc(OC3CCCC3)c3c(-c4ccc5nc(C)oc5c4)c[nH]c3n2)c(OC)c1	False
C#Cc1c(F)ccc2cc(O)cc(-c3ncc4c(N5CC6CCC(C5)N6)nc(OCC56CCCN5CC(F)C6)nc4c3F)c12 (stereo not given) + CN1CCN(c2cc(C(=O)Nc3cc4cc(-c5cnn(C)c5)ccc4cn3)ccn2)CC1	True

---

Recorded viability, T/C by entry
system: 876862-298-R-J1-PDC complex spheroids, viability % test/control; experiment: Anticancer human tumor 876862-298-R-J1-PDC cell line growth inhibition [CLK]; details: second compound 0.316 µM; first compound 3.16 µM; stronger effect = lower value;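 further: spheroids exposed to drugs for 7 days before readout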;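 on viability, T/C: 100% = DMSO vehicle control wells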
endpointName: viability, T/C (%)

compound	endpointName	readingUnit	value
C=C(F)C(=O)N1CCN(c2nc(OCC3CCCN3C)nc3c2CCN(c2cccc4cccc(Cl)c24)C3)CC1CC#N (stereo not drawn) + CN1CCN(c2cc(C(=O)Nc3cc4cc(-c5cnn(C)c5)ccc4cn3)ccn2)CC1	viability, T/C	%	3.01
CC1COCCN1c1cc(C2(S(C)(=N)=O)CC2)nc(-c2ccnc3[nH]ccc23)n1 (stereo not drawn) + CN1CCN(c2cc(C(=O)Nc3cc4cc(-c5cnn(C)c5)ccc4cn3)ccn2)CC1	viability, T/C	%	2.12
CC(=O)O[C@H]1C(=O)[C@@]2(C)[C@H]([C@H](OC(=O)c3ccccc3)[C@]3(O)C[C@H](OC(=O)[C@H](O)[C@@H](NC(=O)c4ccccc4)c4ccccc4)C(C)=C1C3(C)C)[C@]1(OC(C)=O)CO[C@@H]1C[C@@H]2O + CNC(=O)c1ccc(Nc2nc(OC3CCCC3)c3c(-c4ccc5nc(C)oc5c4)c[nH]c3n2)c(OC)c1	viability, T/C	%	47.8

---

tested on: 876862-298-R-J1-PDC complex spheroids, viability % test/control; assay: Anticancer human tumor 876862-298-R-J1-PDC cell line growth inhibition [CLK]; conditions: second compound 0.316 µM; first compound 0.0316 µM; active = viability on the fitted dose curve at most 10% of control; inactive = the rest;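 further: spheroids exposed to drugs for 7 days before readout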
Possible outcomes: YES for active, NO for inactive

compound	assignedCategory
COc1c(OCCCN2CCOCC2)ccc2c3n(c(=NC(=O)c4cnc(N)nc4)nc12)CCN3 + CNC(=O)c1ccc(Nc2nc(OC3CCCC3)c3c(-c4ccc5nc(C)oc5c4)c[nH]c3n2)c(OC)c1	NO
COc1cccc2c1C(=O)c1c(O)c3c(c(O)c1C2=O)CC(O)(C(=O)CO)CC3OC1CC(N)C(O)C(C)O1 (stereo not given) + CN1CCN(c2cc(C(=O)Nc3cc4cc(-c5cnn(C)c5)ccc4cn3)ccn2)CC1	YES
COc1cccc2c1C(=O)c1c(O)c3c(c(O)c1C2=O)CC(O)(C(=O)CO)CC3OC1CC(N)C(O)C(C)O1 (stereo not given) + CNC(=O)c1ccc(Nc2nc(OC3CCCC3)c3c(-c4ccc5nc(C)oc5c4)c[nH]c3n2)c(OC)c1	NO
Nc1ccn(C2OC(CO)C(O)C2(F)F)c(=O)n1 (stereo not given) + CN1CCN(c2cc(C(=O)Nc3cc4cc(-c5cnn(C)c5)ccc4cn3)ccn2)CC1	YES
CCc1c2c(nc3ccc(O)cc13)-c1cc3c(c(=O)n1C2)COC(=O)[C@]3(O)CC + CNC(=O)c1ccc(Nc2nc(OC3CCCC3)c3c(-c4ccc5nc(C)oc5c4)c[nH]c3n2)c(OC)c1	YES
